assay: chemical genetic growth profiling, strain panel (AID 1159580);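 note: tested at 20 µM; growth read once vehicle control cultures reached saturation at 30 °C; 1 = growth at the plate median or of vehicle wells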; conditions: S. cerevisiae deletion strains, growth OD, locus YCL029C, strain bik1
Out of some 5,500 compounds screened, about 2,000 (36%) were called active. Not shown: some 18% with an inconclusive outcome. Cut-off read from the data, not from the text of the source: active = normalized growth mostly below about 0.91 (no sharp cut-off); inconclusive = no clear call, values can overlap the other calls; inactive = mostly above about 0.92. The list shows a part of the results.
Could you please pick one outcome from this set? y (active), n (inactive)

Before answering, review these 5 worked examples.
compound=CCN(CC)CCOC(=O)C(c1ccccc1)c1ccccc1 category=n
compound="CN[C@@H]1[C@H](OC2[C@H](O[C@H]3[C@H](O)[C@@H](O)[C@H](N=C(N)N)[C@@H](O)[C@@H]3N=C(N)N)O[C@@H](C)[C@]2(O)C=O)O[C@@H](CO)[C@H](O)[C@H]1O (stereo not given in full)" category=n
compound="COC(=O)CCC(=O)O[C@H]1CCC2(C)C(CCC3C2C(=O)[C@@H](O)C2(C)C3CC3OC4(CCC(C)CO4)[C@@H](C)C32)C1 (stereo not given in full)" category=n
compound=COc1cc(OC)c(OC)cc1C=O category=n
compound=CCCC(CCC)C(=O)O category=n

Q: # outcome recorded in this test, key = NC(Cc1ccc(F)cc1)C(=O)O (stereo not given)
Result: n

====

assay: chemical genetic growth profiling, strain panel (AID 1159580); conditions: S. cerevisiae deletion strains, growth OD, locus YJR075W, strain HOC1, stronger effect = lower value
The whole screen tested about 5,500 compounds, of which about 2,000 (36%) were called active. Roughly 18% stayed inconclusive and do not appear here. The list shows a part of the results.
I'd appreciate it if you marked entries yes (1) when normalized growth is lower than 1 and no (0) when it is not.

smiles_representation=Cc1c(S(=O)(=O)c2ccc(Cl)cc2)csc1S(=O)(=O)N/N=C\c1c(Cl)cccc1Cl category="no (0)"
smiles_representation=O=C(O)CCOc1ccc(Cl)cc1 category="yes (1)"
smiles_representation=N[C@@H](Cc1cc(I)c(Oc2cc(I)c(O)c(I)c2)c(I)c1)C(=O)O category="no (0)"
smiles_representation=COc1ccc(CNc2ccccc2-c2nc3ccccc3[nH]2)cc1 category="yes (1)"
smiles_representation=O=c1cc(-c2ccccc2)oc2cc(O)c(O)c(O)c12 category="yes (1)"

Q: # TODO verify normalized growth < 1 strictly for this compound: `CCC(=O)c1c(C)c(C)c(C)c(C)c1C`
Result: yes (1)

====

assay: chemical genetic growth profiling, strain panel (AID 1159580); settings: S. cerevisiae deletion strains, growth OD, locus YEL037C, strain rad23, stronger effect = lower value
Out of some 5,500 compounds screened, about 2,000 (36%) were called active. Not shown: some 18% with an inconclusive outcome. The list shows a part of the results.
Mark 1 for normalized growth under 1, -1 if at or over.

compound="C=Cc1c(C)c2[n-]c1=Cc1[n-]c(c(CC)c1C)C=c1[n-]c3c(c1C)C(=O)C(C(=O)[O-])C=3c1[n-]c(c(C)c1CCC(=O)[O-])C=2.[Cu] (centres undefined)" category=-1

Please find the next compound below.
Q: Strictly below 1 in normalized growth? CC[C@H](CCC(C)[C@H]1CCC2C3CCC4C[C@@H](O)CC[C@]4(C)C3CC[C@@]21C)C(C)C (some centres undefined)
Result: 1

====

assay: chemical genetic growth profiling, strain panel (AID 1159580); settings: S. cerevisiae deletion strains, growth OD, locus YDL185W, strain tfp1
Out of some 5,500 compounds screened, about 2,000 (36%) were called active. About 18% were inconclusive and are not listed. Rule as the data show it: active = normalized growth mostly below about 0.91 (no sharp cut-off); inconclusive = no clear call, values can overlap the other calls; inactive = mostly above about 0.92. The list shows a part of the results.
Respond only with the outcome that fits, drawn from class 1 (active), class 0 (inactive)

Q: Assay outcome for `N[C@@H](Cc1cc(I)c(Oc2ccc(O)c(I)c2)c(I)c1)C(=O)O` : what was it?
Result: class 0

====

assay: chemical genetic growth profiling, strain panel (AID 1159580); conditions: S. cerevisiae deletion strains, growth OD, locus YJR075W, strain HOC1, stronger effect = lower value
Among all 5,500 compounds or so, about 2,000 (36%) were called active. Not shown: some 18% with an inconclusive outcome. Some of the results follow.
Reported Metric: normalized growth
Give bare numbers.

compound=COc1ccc(-c2ccc(C=C(C#N)C#N)s2)cc1 reported_metric="normalized growth" number=1.01
compound="CC(=O)O[C@H]1C[C@@H](OC(C)=O)C(C)(C)C2CC(=O)[C@]3(C)C(CC[C@@]4(C)[C@H](c5ccoc5)OC(=O)[C@H]5O[C@]543)[C@]21C (stereo not given in full)" reported_metric="normalized growth" number=1.01
compound=Cc1cc(O)c(C)c2c1C(=O)Oc1c(C)c(O)c(C(=O)O)c(C)c1O2 reported_metric="normalized growth" number=1.01
compound=CCCCC[C@H](CC(=O)NO)C(=O)N[C@H](C(=O)N1CCC[C@H]1CO)C(C)C reported_metric="normalized growth" number=1.04

Please report normalized growth for every entry that follows.
1. COc1ccc(CCNC(=S)NCCc2ccc(OC)c(OC)c2)cc1OC
2. COc1c2c(nc3ccccc13)OC(C(C)(O)CO)C2 (stereo not given)
3. CC1=C2[C@H]3OC(=O)[C@@H](C)[C@@H]3CC[C@@]2(C)C=CC1=O
4. Cc1cc(O)c(C=O)c2c1C(=O)Oc1c(COC(=O)/C=C/C(=O)O)c(O)c(C(=O)O)c(C)c1O2
5. COc1c2ccoc2nc2c(OC)c(OCC(O)C(C)(C)O)ccc12 (stereo not given)
6. CC(=O)Nc1ccccc1

Result:
1. 1.04
2. 0.994
3. 1.02
4. 0.962
5. 1.07
6. 0.99

====

test: chemical genetic growth profiling, strain panel (AID 1159580);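 note: tested at 20 µM; growth read once vehicle control cultures reached saturation at 30 °C; 1 = growth at the plate median or of vehicle wells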; conditions: S. cerevisiae deletion strains, growth OD, locus YJL095W, strain BCK1 (second series)
The whole screen tested about 5,500 compounds, of which about 2,000 (36%) were called active. Another 18% or so got no clear call; they are omitted. No stated cut-off is given here; in the data, active means normalized growth mostly below about 0.91 (no sharp cut-off); inconclusive means no clear call, values can overlap the other calls; inactive means mostly above about 0.92. Some of the results follow.
Lab note: assign the record to one of active, inactive

Consider the worked cases shown below.
compound="CC(CCC(=O)O)[C@H]1CCC2C3CC[C@@H]4C[C@H](O)CC[C@]4(C)C3CC[C@@]21C (stereo partly drawn)" category=active
compound=CCC(=O)Nc1ccc(Cl)c(Cl)c1 category=inactive
compound="Cc1ncc([N+](=O)[O-])n1CC(C)O (stereo not drawn)" category=inactive

Q: Which outcome was entered for the compound C=Cc1c(C)c2[n-]c1=Cc1[n-]c(c(CC)c1C)C=c1[n-]c3c(c1C)C(=O)C(C(=O)[O-])C=3c1[n-]c(c(C)c1CCC(=O)[O-])C=2.[Cu] (stereo not drawn) in this test?
Result: active

Q: // repeat for `COc1cc(OC)c(OC)cc1C=O` and report
Result: inactive

====

assay: chemical genetic growth profiling, strain panel (AID 1159580);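 note: tested at 20 µM; growth read once vehicle control cultures reached saturation at 30 °C; 1 = growth at the plate median or of vehicle wells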; details: S. cerevisiae deletion strains, growth OD, locus YLL041C, strain sdh2, stronger effect = lower value
The campaign covered roughly 5,500 compounds. About 2,000 (36%) were called active. Inconclusive results (about 18%) are left out. The list shows a part of the results.
I'd appreciate it if you could supply normalized growth values for the items below.
Give bare numbers.

Example cases with answers are listed next.
molecule=O=C(O)CCCOc1ccc(Cl)cc1Cl number=0.951
molecule="CC(CN(C)C)CN1c2ccccc2CCc2ccccc21 (stereo not given)" number=0.965
molecule=COc1cc([C@@H]2c3cc4c(cc3[C@H](OC(C)=O)[C@H]3COC(=O)[C@@H]23)OCO4)cc(OC)c1OC number=0.997
molecule="CC(CCC(=O)O)[C@H]1CCC2C3C[C@H](O)[C@@H]4C[C@H](O)CC[C@]4(C)C3CC[C@@]21C (stereo not given in full)" number=0.984

For each listed entry, give its normalized growth.
1. C[C@@H]1CC2C3CCC4=CC(=O)C=C[C@]4(C)[C@@]3(F)[C@@H](O)C[C@]2(C)[C@H]1C(=O)CO (stereo not given in full)
2. CN(C)CCOC(=O)COc1ccc(Cl)cc1

Result:
0.999
0.961

Each of the following entries comes with a recorded value; kindly state normalized growth for each.
1. O=C(Nc1ccccc1)Nc1ccccc1
2. CN1CCN(C2=Nc3ccccc3Oc3ccc(Cl)cc32)CC1
3. N[C@@H]1[C@@H](O)[C@H](O)[C@@H](CO)O[C@H]1O
4. CCCCCC1C(=O)CCC1CC(=O)OC (stereo not given)
5. CN(C)CCOC(=O)C(c1ccccc1)C1(O)CCCC1 (stereo not given)
6. COc1c2ccoc2nc2c(OC)c(OCC(O)C(C)(C)O)ccc12 (stereo not given)

Result:
1. 0.982
2. 0.987
3. 1.01
4. 0.982
5. 0.99
6. 1.02

====

test: chemical genetic growth profiling, strain panel (AID 1159580);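 note: tested at 20 µM; growth read once vehicle control cultures reached saturation at 30 °C; 1 = growth at the plate median or of vehicle wells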; details: S. cerevisiae deletion strains, growth OD, locus YKR001C, strain vps1, stronger effect = lower value
Screen size: about 5,500 compounds; about 2,000 (36%) were called active. Roughly 18% stayed inconclusive and do not appear here. The list shows a part of the results.
Reported Metric: normalized growth
Give bare numbers.

compound=N[C@@H](Cc1cc(I)c(Oc2ccc(O)c(I)c2)c(I)c1)C(=O)O number=0.967
compound="C[C@@H]1CC2C3C[C@H](F)C4=CC(=O)C=C[C@]4(C)[C@@]3(F)[C@@H](O)C[C@]2(C)[C@@]1(O)C(=O)COC(=O)C(C)(C)C (stereo not given in full)" number=0.988
compound="NC(Cc1ccc(F)cc1)C(=O)O (stereo not given)" number=1.01
compound="CC1(C)C(O)CC(O)C2(C)C1CC(O)C1(C)C2CCC2(C)C(c3ccoc3)OC(=O)C3OC321 (stereo not given)" number=1.01
compound=O=C(O)Cc1cc(I)c(Oc2cc(I)c(O)c(I)c2)c(I)c1 number=0.931
compound=CN(C)C(=O)Nc1ccc(Cl)c(Cl)c1 number=0.984
compound=COc1cc(OC)c2c3c1C(=O)c1c(OC)cc(C)c4c(OC)cc(c-3c14)C(C)(C)C2=O number=0.973
compound="CC1CC2C3CC(F)C4=CC(=O)C=CC4(C)C3(F)C(O)CC2(C)C1C(=O)COC(=O)C(C)(C)C (stereo not given)" number=0.987

// each compound listed below needs its normalized growth
1. O=c1cc(-c2ccccc2)oc2cc(O)c(O)c(O)c12
2. N[C@@H](Cc1cc(I)c(Oc2cc(I)c(O)c(I)c2)c(I)c1)C(=O)O

Result:
1. 0.376
2. 0.953
